Where these numbers come from: ChEMBL document CHEMBL6134836

test.method.notes: Cytotoxicity against mouse BaF3 cells expressing BCR-ABL assessed as cell viability
Assay type: toxicity, cell-based
recorded.metric: IC50

Per the records, this compound ( NC(=O)c1cccc(-c2cc(Nc3ccc(OC(F)(F)F)cc3)ncn2)c1 ) has IC50 equal to > 10 µM
